Quick list: Activity, No BP, DF-2500000 per entry.
TEST TARGET: T1, IL-18 receptors on HEK-Blue IL-18 reporter cells (UniProt Q13478 19-541; O95256 20-599, limits assumed)
T1 sequence (looked up) 1: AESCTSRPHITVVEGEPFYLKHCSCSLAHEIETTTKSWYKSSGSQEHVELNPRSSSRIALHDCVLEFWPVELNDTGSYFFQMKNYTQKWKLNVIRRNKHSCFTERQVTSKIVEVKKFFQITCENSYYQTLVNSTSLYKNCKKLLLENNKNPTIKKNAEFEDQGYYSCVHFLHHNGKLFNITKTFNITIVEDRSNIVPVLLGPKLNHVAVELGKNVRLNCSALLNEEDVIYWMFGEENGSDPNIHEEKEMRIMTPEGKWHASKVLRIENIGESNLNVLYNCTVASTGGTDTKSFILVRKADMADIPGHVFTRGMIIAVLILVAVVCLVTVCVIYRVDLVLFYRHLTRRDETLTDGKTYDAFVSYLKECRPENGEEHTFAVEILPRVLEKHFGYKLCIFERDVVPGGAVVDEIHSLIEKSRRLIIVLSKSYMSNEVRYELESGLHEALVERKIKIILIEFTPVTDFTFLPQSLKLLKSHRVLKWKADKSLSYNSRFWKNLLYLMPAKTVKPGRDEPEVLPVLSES
T1 sequence (looked up) 2: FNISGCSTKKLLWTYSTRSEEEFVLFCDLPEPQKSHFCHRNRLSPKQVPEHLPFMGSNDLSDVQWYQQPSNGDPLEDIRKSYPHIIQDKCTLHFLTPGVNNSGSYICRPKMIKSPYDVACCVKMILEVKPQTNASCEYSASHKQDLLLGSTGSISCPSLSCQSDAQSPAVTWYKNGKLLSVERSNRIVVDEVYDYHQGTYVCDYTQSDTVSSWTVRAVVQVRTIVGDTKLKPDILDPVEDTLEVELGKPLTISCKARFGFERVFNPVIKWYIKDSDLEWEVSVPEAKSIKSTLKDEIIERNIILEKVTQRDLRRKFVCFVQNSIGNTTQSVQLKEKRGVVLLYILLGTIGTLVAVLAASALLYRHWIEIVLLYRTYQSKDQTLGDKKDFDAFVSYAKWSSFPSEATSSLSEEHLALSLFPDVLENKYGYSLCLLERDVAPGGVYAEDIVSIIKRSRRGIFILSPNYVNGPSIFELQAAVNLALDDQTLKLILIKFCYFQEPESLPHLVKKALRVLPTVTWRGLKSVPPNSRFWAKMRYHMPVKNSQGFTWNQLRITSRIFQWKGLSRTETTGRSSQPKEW
ASSAY DETAILS: cell-based or functional assay
VALUE KIND: Activity, No BP, DF-2500000

| BINDER | NUMERIC READOUT |
| --- | --- |
| IL-18 variant G3Y, E6N, N91Y, R104S (ligand) YFYKLNSKLSVIRNLNDQVLFIDQGNRPLFEDMTDSDMRDNAPRTIFIISMYKDSQPRGMAVTISVKSEKISTLSSENKIISFKEMNPPDYIKDTKSDIIFFQSSVPGHDNKMQFESSSYEGYFLASEKERDLFKLILKKEDELGDRSIMFTVQNED | 1.54 |
| IL-18 variant G3S, E6Q, K53S, D54Y, S55H, N91L, R104Q (ligand) YFSKLQSKLSVIRNLNDQVLFIDQGNRPLFEDMTDSDMRDNAPRTIFIISMYSYHQPRGMAVTISVKSEKISTLSSENKIISFKEMNPPDLIKDTKSDIIFFQQSVPGHDNKMQFESSSYEGYFLASEKERDLFKLILKKEDELGDRSIMFTVQNED | 0.08 |
| IL-18 variant G3P, E6H, D54A, S55P, Q56K, T63S, N91M (ligand) YFPKLHSKLSVIRNLNDQVLFIDQGNRPLFEDMTDSDMRDNAPRTIFIISMYKAPKPRGMAVSISVKSEKISTLSSENKIISFKEMNPPDMIKDTKSDIIFFQRSVPGHDNKMQFESSSYEGYFLASEKERDLFKLILKKEDELGDRSIMFTVQNED | 0.17 |
